Listing of entries alongside the reported TGI.
- Test system: RXF 393 renal
- Assay Summary: NCI tumour cell line growth inhibition, 48 h

Answered examples (10):
[
  {
    "Compound": "C[C@]12CCC3c4ccc(O)cc4CC[C@H]3C1CC(=O)N(N)C2=O (stereo not given in full)",
    "TGI": "> 100 µM"
  },
  {
    "Compound": "CC(=O)NC1=C(C)C(=O)c2c(nc3n2CCC3OC(=O)c2ccccc2)C1=N (stereo not given)",
    "TGI": "2.9 µM"
  },
  {
    "Compound": "CSc1c(C#N)c(O)n(-c2ccc(C)cc2)c(=O)c1C#N",
    "TGI": "> 100 µM"
  },
  {
    "Compound": "Cc1cc2cccnc2c2ncccc12",
    "TGI": "6.77 µM"
  },
  {
    "Compound": "Cc1cc(Cc2cc(C)c(O)c(C)c2)cc(C)c1O",
    "TGI": "36.4 µM"
  },
  {
    "Compound": "CCCCSN1C(=O)c2ccccc2C1=S",
    "TGI": "> 100 µM"
  },
  {
    "Compound": "O=C(N/C(=C\\c1ccccc1[N+](=O)[O-])c1nc2ccccc2[nH]1)c1ccccc1",
    "TGI": "> 100 µM"
  },
  {
    "Compound": "Cc1cc(C)nc(NS(=O)(=O)c2ccc(NN=c3c4ccccc4n(C)c4ccccc34)cc2)n1",
    "TGI": "50.8 µM"
  },
  {
    "Compound": "C=C(C)C#CC(O)(C(=O)OC1CCN(C)CC1)C(C)C (stereo not given)",
    "TGI": "> 100 µM"
  },
  {
    "Compound": "COc1cc(C2S/C(=C/c3ccccc3)C(=O)N2c2cc(Cl)ccc2Cl)cc(OC)c1OC (stereo not given)",
    "TGI": "> 100 µM"
  }
]

Q: Would you mind telling me what TGI value was observed for Cc1ccc(NC(=O)CC/C(CC(=O)C(C)(C)C)=N/NC(=O)C(N)=O)cc1C ?
Result: > 100 µM

Q: Note, next up: [N-]=[N+]=Nc1ccc(CCN2CCN(c3cccc(C(F)(F)F)c3)CC2)cc1I
Result: > 100 µM

Q: # repeat for CCOC(=O)C1=C(C)NC2SC(=O)/C(=C\c3ccccc3Cl)N2C1c1ccccc1 (stereo not given)
Result: > 100 µM

Q: Same question, CCSc1c(C)c2c(n(Cc3ccc(OC)cc3)c1=O)Cc1ccccc1C2 this time
Result: > 100 µM

====

Measured TGI of individual entries
- System: MDA-N
- Assay Summary: NCI tumour cell line growth inhibition, 48 h

Worked examples, 8 compounds total:
[
  {
    "Compound": "COc1cc([N+](=O)[O-])c(S(=O)(=O)O)cc1NS(=O)(=O)c1ccc(C)cc1",
    "TGI": "> 100 µM"
  },
  {
    "Compound": "Nc1nc(N)c(C2=CCN(Cc3ccccc3)CC2)c(=O)[nH]1",
    "TGI": "> 100 µM"
  },
  {
    "Compound": "COc1ccc(-c2cc(-c3ccccc3)n(C3OCC(OC(C)=O)C(OC(C)=O)C3OC(C)=O)c(=S)c2C#N)cc1 (stereo not given)",
    "TGI": "> 100 µM"
  },
  {
    "Compound": "O=c1cc(CO)n(CCc2c[nH]c3ccccc23)cc1O",
    "TGI": "> 100 µM"
  },
  {
    "Compound": "OC(CC(CC(O)(C(F)(F)Cl)C(F)(F)Cl)=NNc1ccccc1)(C(F)(F)Cl)C(F)(F)Cl",
    "TGI": "7.81 µM"
  },
  {
    "Compound": "C=C(C)[C@@H]1CC[C@]2(C)CC[C@]3(C)[C@H](CC[C@@H]4[C@@]5(C)CC[C@H](OC(=O)c6ccccc6)C(C)(C)[C@@H]5CC[C@]43C)[C@@H]12",
    "TGI": "> 100 µM"
  },
  {
    "Compound": "N#Cc1nc(CSCc2ccccc2)oc1N",
    "TGI": "> 100 µM"
  },
  {
    "Compound": "COC1C(O)C(C)OC(OC2C(Oc3cccc4c(O)c5c(=O)oc6ccc(C)c7c(=O)oc(c34)c5c67)OC(C)C3O[C@H](c4ccccc4)OC32)C1O (stereo not given in full)",
    "TGI": "10.4 µM"
  }
]

Q: Sample O=c1[nH]c(=O)n(C2CC(O)C(CO)O2)cc1NN=NCCc1ccccc1 (stereo not given) — what was its TGI?
Result: > 100 µM

Q: Another compound to check: Cc1nc(Cl)c(Cl)c(Cl)n1
Result: 3.15 µM
